Data credit: patent US7067277

Biological target: human 5HT4 receptor (human, UniProt Q13639 1-388)
Sequence (Q13639 whole entry): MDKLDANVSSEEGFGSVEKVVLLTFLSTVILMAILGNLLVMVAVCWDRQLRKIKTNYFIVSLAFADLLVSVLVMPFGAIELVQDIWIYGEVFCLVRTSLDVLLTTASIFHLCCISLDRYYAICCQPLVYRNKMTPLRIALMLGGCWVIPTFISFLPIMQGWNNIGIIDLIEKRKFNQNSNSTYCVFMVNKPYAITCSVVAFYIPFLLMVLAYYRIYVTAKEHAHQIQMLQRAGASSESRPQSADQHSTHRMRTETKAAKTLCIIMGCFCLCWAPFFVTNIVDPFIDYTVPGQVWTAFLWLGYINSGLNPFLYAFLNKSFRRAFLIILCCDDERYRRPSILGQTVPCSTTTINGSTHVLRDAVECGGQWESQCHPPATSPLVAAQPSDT
Test: cell-based or functional assay
Reported Property: max Ca2+ signal, COS-7, FLIPR; agonist 5HT (fluorescence units)

Binder	Unit String	Readout Number
Human Gαq/s5 (other) MTLESIMACCLSEEAKEARRINDEIERQLRRDKRDARRELKLLLLGTGESGKSTFIKQMRIIHGSGYSDEDKRGFTKLVYQNIFTAMQAMIRAMDTLKIPYKYEHNKAHAQLVREVDVEKVSAFENPYVDAIKSLWNDPGIQECYDRRREYQLSDSTKYYLNDLDRVADPSYLPTQQDVLRVRVPTTGIIEYPFDLQSVIFRMVDVGGQRSERRKWIHCFENVTSIMFLVALSEYDQVLVESDNENRMEESKALFRTIITYPWFQNSSVILFLNKKDLLEEKIMYSHLVDYFPEYDGPQRDAQAAREFILKMFVDLNPDSDKIIYSHFTCATDTENIRFVFAAVKDTILQLNLKQYELL	fluorescence units	1710
